experimental_system: CHO cells expressing α2β1 integrin (Homo sapiens, UniProt P05556+P17301)
Sequence (P17301 whole entry, one chain of several): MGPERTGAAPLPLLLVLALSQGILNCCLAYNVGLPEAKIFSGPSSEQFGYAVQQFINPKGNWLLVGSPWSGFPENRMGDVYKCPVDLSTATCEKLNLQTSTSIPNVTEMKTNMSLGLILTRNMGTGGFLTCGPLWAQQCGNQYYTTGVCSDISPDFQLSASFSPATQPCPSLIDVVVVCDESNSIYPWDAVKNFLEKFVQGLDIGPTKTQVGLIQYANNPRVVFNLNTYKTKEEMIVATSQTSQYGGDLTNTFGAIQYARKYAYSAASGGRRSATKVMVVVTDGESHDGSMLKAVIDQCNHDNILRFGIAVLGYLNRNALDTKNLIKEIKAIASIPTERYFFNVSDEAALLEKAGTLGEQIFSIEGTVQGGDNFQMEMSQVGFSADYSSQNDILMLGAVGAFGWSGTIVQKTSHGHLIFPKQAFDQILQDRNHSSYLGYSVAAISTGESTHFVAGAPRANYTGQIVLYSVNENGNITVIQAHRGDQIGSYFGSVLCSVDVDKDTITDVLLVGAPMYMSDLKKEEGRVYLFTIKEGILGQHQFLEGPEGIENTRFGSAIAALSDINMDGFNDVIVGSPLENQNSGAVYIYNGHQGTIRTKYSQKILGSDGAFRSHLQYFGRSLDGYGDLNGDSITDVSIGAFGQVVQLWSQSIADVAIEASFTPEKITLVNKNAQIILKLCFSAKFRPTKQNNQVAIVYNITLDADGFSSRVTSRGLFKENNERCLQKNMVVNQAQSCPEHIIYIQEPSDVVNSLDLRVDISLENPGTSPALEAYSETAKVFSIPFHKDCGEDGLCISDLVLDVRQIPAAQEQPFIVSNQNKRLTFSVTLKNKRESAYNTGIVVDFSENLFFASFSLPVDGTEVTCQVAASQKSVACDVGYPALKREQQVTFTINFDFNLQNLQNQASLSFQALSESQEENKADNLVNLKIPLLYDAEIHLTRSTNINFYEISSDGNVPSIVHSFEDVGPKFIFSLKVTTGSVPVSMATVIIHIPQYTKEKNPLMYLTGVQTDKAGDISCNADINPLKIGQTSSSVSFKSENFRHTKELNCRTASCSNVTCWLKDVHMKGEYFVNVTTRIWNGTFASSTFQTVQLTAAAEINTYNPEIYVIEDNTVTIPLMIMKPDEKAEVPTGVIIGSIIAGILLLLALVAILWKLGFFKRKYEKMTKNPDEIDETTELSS
measurement_notes: Cell adhesion assay, CHO-α2 cells on collagen type I
Assay type: cell-based, Chinese Hamster
condition_set: CHO
Method: Chinese Hamster Ovary (CHO) cell clone expressing wild type α2 integrin was used in cell adhesion assay. Cells were suspended in serum free medium containing 0.1 mg/ml cycloheximide (Sigma) and the compounds were preincubated with the cells prior to transfer to the wells. […] Fresh serum free medium was added and the living cells were detected using a cell viability kit (Roche) according to the manufacturers protocol. […]
For each entry below, report its Emax at 100 µM value.
Express it in %; write the number only.

Exercise: Please look up its Emax at 100 µM: O=C(c1ccccc1)c1ccc(NS(=O)(=O)c2cccc(-c3ccc(F)cc3)c2)cc1
Key: 81

Exercise: Fill in: Emax at 100 µM of N#Cc1ccc(NS(=O)(=O)c2cccc(-c3ccc(F)cc3)c2)cc1 is ___
Key: 74

Exercise: Please give the measured Emax at 100 µM for this compound: O=C(c1ccccc1)c1ccc(NS(=O)(=O)c2ccc(Cl)cc2Cl)cc1
Key: 79

Exercise: Request the reported Emax at 100 µM associated with O=[N+]([O-])c1ccc(NS(=O)(=O)c2cccc(-c3ccc(F)cc3)c2)cc1
Key: 78

Exercise: Sample CN(C)c1ccc(N(CCn2ccnc2)S(=O)(=O)c2cccc(-c3ccc(F)cc3)c2)cc1 — what was its Emax at 100 µM?
Key: 74

Exercise: Need Emax at 100 µM, item O=S(=O)(Nc1cccc(-c2ccc(F)cc2)c1)c1ccc(Cl)cc1Cl
Key: 86

Exercise: Would you kindly share the measured Emax at 100 µM for CN(c1ccc(NC(=O)N2CCNC2=O)cc1)S(=O)(=O)c1cccc(-c2ccc(F)cc2)c1 ?
Key: 59

Exercise: Quick check: Emax at 100 µM of CN(C)CCN(c1ccc(N(C)C)cc1)S(=O)(=O)c1cccc(-c2ccc(F)cc2)c1 ?
Key: 89

---

Assignment: determine reported EC50 for the given compounds.
experimental_system: CHO cells expressing α2β1 integrin (Homo sapiens, UniProt P05556+P17301)
measurement_notes: Cell adhesion assay, CHO-α2 cells on collagen type I
Type: cell-based, Chinese Hamster
condition_set: CHO-α2 cells, collagen type I; read-out: EC50, adhesion
Lab book: enter the figure in µM, no units written.

Exercise: // returns reported EC50 for input O=C(c1ccccc1)c1cccc(NS(=O)(=O)c2cccc(-c3ccc(F)cc3)c2)c1
Key: 15

Exercise: Tell me the measured EC50 of O=C(c1ccccc1)c1ccc(NS(=O)(=O)c2ccc(Cl)cc2Cl)cc1 , please.
Key: 42

Exercise: // query EC50 value for entry O=S(=O)(Nc1cccc(-c2ccc(F)cc2)c1)c1ccc(Cl)cc1Cl
Key: 37

Exercise: Would you kindly share the measured EC50 for CN(C)c1ccc(N(CCO)S(=O)(=O)c2cccc(-c3ccc(F)cc3)c2)cc1 ?
Key: 39

---

experimental_system: CHO cells expressing α2β1 integrin (Homo sapiens, UniProt P05556+P17301)
measurement_notes: Cell adhesion assay, CHO-α2 cells on collagen type I
Type: cell-based, Chinese Hamster
condition_set: CHO cells expressing α2β1; FIG. 10A; read-out: EC50 of cell adhesion to type I collagen
pEC50: −log10 of the molar value.
parameter_measured: pEC50

Exercise: Recorded pEC50 for COC(=O)c1c(C(C)C)cc(O)c2c(O)c3c(c(O)c12)C(=O)c1cccc(O)c1C3=O , please?
Key: ~4.70
